Can you tell me % inhibition Apol 40' for the items I'm about to list?
- Target system: P. falciparum apicoplast DNA polymerase (Pf-apPOL) (Plasmodium falciparum)
- Sequence (Q8ILY1 entry or part of it): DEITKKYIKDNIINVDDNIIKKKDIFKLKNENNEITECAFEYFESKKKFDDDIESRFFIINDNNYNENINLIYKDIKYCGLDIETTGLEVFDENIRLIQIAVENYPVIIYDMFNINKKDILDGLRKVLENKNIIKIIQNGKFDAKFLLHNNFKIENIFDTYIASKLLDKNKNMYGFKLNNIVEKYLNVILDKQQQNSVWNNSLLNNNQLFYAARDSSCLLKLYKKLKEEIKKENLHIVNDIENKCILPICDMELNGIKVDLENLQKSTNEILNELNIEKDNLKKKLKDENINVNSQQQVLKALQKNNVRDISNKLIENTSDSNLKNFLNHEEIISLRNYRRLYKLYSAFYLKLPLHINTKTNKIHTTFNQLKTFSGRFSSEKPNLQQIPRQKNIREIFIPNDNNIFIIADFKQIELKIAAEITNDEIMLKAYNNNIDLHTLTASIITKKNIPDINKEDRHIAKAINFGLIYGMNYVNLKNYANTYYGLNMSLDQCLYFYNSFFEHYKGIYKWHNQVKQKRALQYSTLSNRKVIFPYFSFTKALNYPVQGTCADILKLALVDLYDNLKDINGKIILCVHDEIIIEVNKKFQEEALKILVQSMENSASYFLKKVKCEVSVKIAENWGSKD
- Experiment: Fluorescence-based high-throughput DNA polymerase assay (molecular beacon), primary screen and dose-response;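 for % inhibition Apol 40': compound concentration given in µM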
- Format: biochemical
- Protocol conditions: DRC-2; 40'; concentration 80

{"Compound": "COc1ccc(/C=C/c2cc(C(=O)O)c3ccccc3n2)cc1", "Parameter measured": "% inhibition Apol 40'", "Test result": "38%"}

Consider the following items and state reported % inhibition Apol 40' for each.
1. C=CC1=C(C)c2cc3[nH]c(cc4nc(cc5[nH]c(cc1n2)c(C)c5CCC(=O)O)C(CCC(=O)O)=C4C)c(C)c3C=C
2. CSC1=C(C#N)C(=C(C#N)C#N)NC(c2ccccc2)=N1 [Molecule 2, CSc1nc([nH]c(=C(C#N)C#N)c1C#N)c1ccccc1]

1: 69%; 2: 76%

----------
- Target system: UniProtKB Q8ILY1
- Experiment: Fluorescence-based high-throughput DNA polymerase assay (molecular beacon), primary screen and dose-response;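 for % inhibition apPOL 180': test concentration in µM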
- Format: biochemical
- Protocol conditions: DRC-2, 180', concentration 20 (unit not given)
- Text: The HT assay employs a molecular beacon, a stem-loop DNA template with a Cy3 dye and the Black Hole Quencher on the 3′ and 5′ ends of the DNA, respectively. Pf-apPOL concentration is based on a calculated absorptivity of ε280 = 56750 M^−1 cm^−1. […] To identify apPOL inhibitors we utilised our previously developed high-throughput DNA polymerase assay. […] The assay accurately recapitulates the kinetic behaviour of apPOL, as measured through more conventional low-throughput gel-based assays. […]
Parameter measured: % inhibition apPOL 180' (%)
One number for each entry, in %.

{"Structure string": "O=[N+]([O-])/C=C/c1ccc(-c2ccc(Br)cc2)o1", "% inhibition apPOL 180', %": 53}

The following compounds each have a reported value; give each one's % inhibition apPOL 180'.
1. CCCCCCCCCCCCCCCCCC(=O)CCN(C)C
2. COc1ccc(-c2c(C(F)(F)F)nn3c(=O)cc(-c4cccc([N+](=O)[O-])c4)[nH]c23)cc1
3. CCOc1ccc(/C=C2\N=C(c3cc([N+](=O)[O-])cc([N+](=O)[O-])c3)OC2=O)cc1

1: 13; 2: 65; 3: 60

----------
- Target system: bacteriophage T4 DNA polymerase (Enterobacteria phage T4, UniProt P04415)
- Construct: made in house
- Sequence (P04415 1-898): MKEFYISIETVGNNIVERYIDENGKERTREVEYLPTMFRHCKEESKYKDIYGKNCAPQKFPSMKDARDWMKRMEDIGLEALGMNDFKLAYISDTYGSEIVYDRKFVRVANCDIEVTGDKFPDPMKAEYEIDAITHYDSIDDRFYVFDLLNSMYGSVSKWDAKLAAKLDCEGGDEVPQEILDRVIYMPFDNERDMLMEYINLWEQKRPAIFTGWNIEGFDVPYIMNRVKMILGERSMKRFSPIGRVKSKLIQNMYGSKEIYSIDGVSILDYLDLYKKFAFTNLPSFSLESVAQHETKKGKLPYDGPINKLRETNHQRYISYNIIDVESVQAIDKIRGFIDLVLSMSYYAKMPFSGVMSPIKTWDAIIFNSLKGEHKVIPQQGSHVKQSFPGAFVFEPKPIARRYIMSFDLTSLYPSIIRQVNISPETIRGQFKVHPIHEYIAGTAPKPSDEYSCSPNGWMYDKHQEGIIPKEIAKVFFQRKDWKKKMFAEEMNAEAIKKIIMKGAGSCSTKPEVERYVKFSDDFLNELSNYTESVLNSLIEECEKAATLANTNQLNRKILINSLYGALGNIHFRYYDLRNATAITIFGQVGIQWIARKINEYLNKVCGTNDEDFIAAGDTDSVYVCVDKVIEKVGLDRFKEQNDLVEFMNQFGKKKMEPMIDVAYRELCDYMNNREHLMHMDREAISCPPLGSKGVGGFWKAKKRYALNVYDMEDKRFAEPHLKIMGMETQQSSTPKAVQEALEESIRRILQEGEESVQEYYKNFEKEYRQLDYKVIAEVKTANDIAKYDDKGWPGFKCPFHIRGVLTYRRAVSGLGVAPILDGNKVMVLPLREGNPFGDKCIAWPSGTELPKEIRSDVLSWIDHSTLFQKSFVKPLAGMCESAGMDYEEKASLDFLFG
- Experiment: Counter-screen against bacteriophage T4 DNA polymerase
- Assay type: biochemical
- Protocol conditions: DRC-2; 40'; concentration 2.5
Parameter measured: % inhibition T4 40' (%)
Answers are plain numbers, in %.

Use the examples below as a reference point.
{"Compound": "CC(C)(C)OC(=O)COc1ccc2cc(-c3ccccc3)c(=O)oc2c1", "Target system": "bacteriophage T4 DNA polymerase (Enterobacteria phage T4, UniProt P04415)", "Measure unit": "%", "% inhibition T4 40'": 16}
{"Compound": "CC(=O)c1cc2c(N)c(/C(N)=N/C#N)sc2nc1C", "Target system": "bacteriophage T4 DNA polymerase (Enterobacteria phage T4, UniProt P04415)", "Measure unit": "%", "% inhibition T4 40'": -16}
{"Compound": "O=C(Cc1cc(=O)[nH]c(SCc2ccccc2)n1)Nc1ccc2c(c1)OCO2", "Target system": "bacteriophage T4 DNA polymerase (Enterobacteria phage T4, UniProt P04415)", "Measure unit": "%", "% inhibition T4 40'": -13}
{"Compound": "Cc1ccccc1C(=O)N1CCc2c(nc3cc(-c4ccccc4)[nH]n3c2=O)C1", "Target system": "bacteriophage T4 DNA polymerase (Enterobacteria phage T4, UniProt P04415)", "Measure unit": "%", "% inhibition T4 40'": 10}

Now look at this one.
I would be grateful if you could share the reported % inhibition T4 40' for CC(NC(=O)Cc1cc(=O)[nH]c(SCc2cccc(Cl)c2)n1)c1ccccc1 (centres unmarked) . -9

# credit: paper PMC9090415
